- Experiment notes: Toxicity liver stage against HepG2, at 10uM
- Type: cell-based
- Parameters: test concentration 10 uM, cell line HepG2-A16-CD81EGFP
- Condition context: human, HepG2-A16-CD81EGFP cells; read-out: INHIBITION
# key: entry, value: cytotoxicity at 10 µM

>  <Molecule>
c1ccc(OCc2noc(CN3CCN(C4CCCC4)CC3)n2)cc1

>  <cytotoxicity at 10 µM [%]>
-6.66

$$$$
>  <Molecule>
COC(=O)c1cc(NCC(=O)NC(N)=O)cc(C(F)(F)F)c1

>  <cytotoxicity at 10 µM [%]>
-1.06

$$$$
>  <Molecule>
COc1ccc(N(c2ccccc2)c2ccc(C(=O)O)s2)cc1

>  <cytotoxicity at 10 µM [%]>
-1.5

$$$$
>  <Molecule>
C[C@@H]1CN(C(=O)c2cccc(F)c2)C[C@]12CCN(c1ccsc1)C2=O

>  <cytotoxicity at 10 µM [%]>
-80

$$$$
>  <Molecule>
O=C(CCOc1cccc(F)c1)N1CCCC1Cn1cccn1 (centres undefined)

>  <cytotoxicity at 10 µM [%]>
-5.7

$$$$
>  <Molecule>
O=C(NCCn1cccc1)C1CCN(C2CCCCC2)CC1

>  <cytotoxicity at 10 µM [%]>
-0.467

$$$$
>  <Molecule>
CCC(=O)N1CCC2(C=C(C(=O)N(C)C)c3ccccc32)CC1

>  <cytotoxicity at 10 µM [%]>
-87.3

$$$$
>  <Molecule>
COc1cccc(-c2ncc3c(n2)N(C)CCN(CCN(C)C)C3=O)c1

>  <cytotoxicity at 10 µM [%]>
-12.2

$$$$
>  <Molecule>
O=C(NCCN1CCCCC1)c1scnc1Cl

>  <cytotoxicity at 10 µM [%]>
-7.69

$$$$
>  <Molecule>
CC(=O)N[C@H]1CCN2C(=O)[C@@H](Cc3c[nH]c4ccccc34)NC(=O)[C@H]12

>  <cytotoxicity at 10 µM [%]>
-0.639

$$$$
>  <Molecule>
COc1ccc(CC2(CO)CCN(c3cc(C#N)ccn3)CC2)cc1

>  <cytotoxicity at 10 µM [%]>
8.86

$$$$
>  <Molecule>
COc1ccccc1CC(C)N(C)CCS(C)(=O)=O (centres undefined)

>  <cytotoxicity at 10 µM [%]>
7.57

$$$$
>  <Molecule>
O=C1OCCN1CCS(=O)(=O)c1cccc(Cl)c1

>  <cytotoxicity at 10 µM [%]>
-0.82

$$$$
>  <Molecule>
COc1ccnc(NC(=O)c2ccsc2)c1

>  <cytotoxicity at 10 µM [%]>
-0.747

$$$$
>  <Molecule>
CN(Cc1cc(C(C)(C)C)n[nH]1)C(=O)c1c[nH]nc1-c1cccc(F)c1

>  <cytotoxicity at 10 µM [%]>
-3.39

$$$$
>  <Molecule>
CC(C(=O)NC1CCCCC1)N1CCc2[nH]nc(C(F)(F)F)c2C1 (centres undefined)

>  <cytotoxicity at 10 µM [%]>
5.15

$$$$
>  <Molecule>
O=C(Cc1ccccc1)NCc1ccc(-c2ccccc2C(=O)O)cn1

>  <cytotoxicity at 10 µM [%]>
-11.5

$$$$
>  <Molecule>
Cc1ccc(CN2CCO[C@H]3[C@H](OCc4cccnc4)CC[C@@H]32)o1

>  <cytotoxicity at 10 µM [%]>
6.22

$$$$
>  <Molecule>
CCc1nc(C2CCCN(C(=O)c3cccc4cn[nH]c34)C2)no1 (centres undefined)

>  <cytotoxicity at 10 µM [%]>
-3.73

$$$$
>  <Molecule>
CCCc1cc(C(=O)N(CC)Cc2ccncc2)[nH]n1

>  <cytotoxicity at 10 µM [%]>
-6.52

$$$$
>  <Molecule>
Cn1ccnc1CN1CCOC(Cn2cccn2)C1 (centres undefined)

>  <cytotoxicity at 10 µM [%]>
-6.07

$$$$
>  <Molecule>
CCC(=O)N1CCN(c2cc(-n3cnc(C)c3C)nc(C)n2)CC1

>  <cytotoxicity at 10 µM [%]>
-4.56

$$$$
>  <Molecule>
Cn1cnc(S(=O)(=O)N2CCCC2)c1Cl

>  <cytotoxicity at 10 µM [%]>
15.1

$$$$
>  <Molecule>
Cc1nc(C(=O)N2CCOC(Cc3ccc(F)cc3)C2)co1 (centres undefined)

>  <cytotoxicity at 10 µM [%]>
-1.39

$$$$
